Target: DNA dC->dU-editing enzyme APOBEC-3G (Homo sapiens) (UniProt Q9HC16)
Sequence (Q9HC16 whole entry, looked up): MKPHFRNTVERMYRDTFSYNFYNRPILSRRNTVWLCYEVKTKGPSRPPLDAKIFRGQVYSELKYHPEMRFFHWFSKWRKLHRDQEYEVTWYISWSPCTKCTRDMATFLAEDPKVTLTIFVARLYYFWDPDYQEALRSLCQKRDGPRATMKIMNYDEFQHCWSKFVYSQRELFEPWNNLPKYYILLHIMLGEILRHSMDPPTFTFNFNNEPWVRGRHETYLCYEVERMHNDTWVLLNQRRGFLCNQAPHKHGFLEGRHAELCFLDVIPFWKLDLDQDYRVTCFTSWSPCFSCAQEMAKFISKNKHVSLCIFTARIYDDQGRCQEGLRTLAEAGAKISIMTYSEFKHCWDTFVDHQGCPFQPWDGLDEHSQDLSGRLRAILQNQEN
Assay: qHTS for inhibitors of Vif-A3G interactions: Cherry picks counterscreen;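 also: potency is read from the fitted curve at half-maximal effect; hits raise yellow fluorescence by blocking Vif-driven A3G-eYFP degradation; nearly all actives have a fitted effect of over 70% in size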
Details: HeLa A3G-eYFP + Vif (tagged APOBEC3G with the HIV-1 protein that degrades it), eYFP fluorescence, 24 h
Excerpt: The recent discovery and characterization of host restriction factors, which provide a potent defense to invading retroviruses, has provided new targets for antiviral drug development. […] In the presence of an inhibitor, it is expected that Vif will be unable to degrade A3G-eYFP and/or A3F-eYFP, resulting in an increase in yellow fluorescence. […]
The campaign covered roughly 2,100 compounds. About 1,100 (52%) were called active. Roughly 27% stayed inconclusive and do not appear here. The set was probably picked from earlier hits. The list shows a part of the results.
Quantity Name: Potency

**Q:** Would you please give the reported Potency of "CC1=CN2C(=N)/C(=C/c3ccc([N+](=O)[O-])o3)C(=O)N=C2S1" with DNA dC->dU-editing enzyme APOBEC-3G (Homo sapiens) (UniProt Q9HC16)?
**A:** 17.7 µM (active)

**Q:** Would you please give the reported Potency of "O=C(N/N=C/c1ccc2c(c1)OCO2)c1cc(-c2ccncc2)nc2ccccc12" with DNA dC->dU-editing enzyme APOBEC-3G (Homo sapiens) (UniProt Q9HC16)?
**A:** 5.59 µM (active)

**Q:** Would you please give the reported Potency of "COc1cc2c(cc1OC)CN(C(=O)/C=C/c1cccs1)CC2" with DNA dC->dU-editing enzyme APOBEC-3G (Homo sapiens) (UniProt Q9HC16)?
**A:** 1.25 µM (active)

**Q:** Would you please give the reported Potency of "C=CCN1C=CC(=C/C=C(/C#N)C(=O)OCC)C=C1" with DNA dC->dU-editing enzyme APOBEC-3G (Homo sapiens) (UniProt Q9HC16)?
**A:** 3.66 µM (active)

**Q:** Would you please give the reported Potency of "CCOC(=O)/C(C#N)=C\C=C1C=CN(C)C=C1" with DNA dC->dU-editing enzyme APOBEC-3G (Homo sapiens) (UniProt Q9HC16)?
**A:** 2.31 µM (active)

**Q:** Would you please give the reported Potency of "CCOc1ccc(S(=O)(=O)Nc2cc3c(C(=O)OC)c(COC)oc3c3ccccc23)cc1" with DNA dC->dU-editing enzyme APOBEC-3G (Homo sapiens) (UniProt Q9HC16)?
**A:** 0.461 µM (active)

**Q:** Would you please give the reported Potency of "COc1cc2c(cc1OC)CN(C(=O)c1cc(=O)c3ccccc3o1)CC2" with DNA dC->dU-editing enzyme APOBEC-3G (Homo sapiens) (UniProt Q9HC16)?
**A:** 15.8 µM (active)

**Q:** Would you please give the reported Potency of "Cc1cc(N(C)C)c(C)cc1/C=C/c1ccnc2ccccc12" with DNA dC->dU-editing enzyme APOBEC-3G (Homo sapiens) (UniProt Q9HC16)?
**A:** 10.3 µM (active)

**Q:** Would you please give the reported Potency of "N#CC1=C(N)C(C#N)(C#N)[C@H](c2c(F)cccc2F)[C@H]2CC3(CC=C12)OCCO3" with DNA dC->dU-editing enzyme APOBEC-3G (Homo sapiens) (UniProt Q9HC16)?
**A:** 16.4 µM (active)

**Q:** Would you please give the reported Potency of "O=C1CCCN1c1ccc(S(=O)(=O)Nc2ccc3c(c2)OCCO3)cc1" with DNA dC->dU-editing enzyme APOBEC-3G (Homo sapiens) (UniProt Q9HC16)?
**A:** 5.59 µM (active)
